Recorded values, source paper PMC10786891.

# Lookup of reported pKd keyed by entry
# Study target: T1, EsCas13d, nuclease-dead (Eubacterium siraeum, UniProt B0MS50, R295A;H300A;R849A;H854A)
# T1 sequence: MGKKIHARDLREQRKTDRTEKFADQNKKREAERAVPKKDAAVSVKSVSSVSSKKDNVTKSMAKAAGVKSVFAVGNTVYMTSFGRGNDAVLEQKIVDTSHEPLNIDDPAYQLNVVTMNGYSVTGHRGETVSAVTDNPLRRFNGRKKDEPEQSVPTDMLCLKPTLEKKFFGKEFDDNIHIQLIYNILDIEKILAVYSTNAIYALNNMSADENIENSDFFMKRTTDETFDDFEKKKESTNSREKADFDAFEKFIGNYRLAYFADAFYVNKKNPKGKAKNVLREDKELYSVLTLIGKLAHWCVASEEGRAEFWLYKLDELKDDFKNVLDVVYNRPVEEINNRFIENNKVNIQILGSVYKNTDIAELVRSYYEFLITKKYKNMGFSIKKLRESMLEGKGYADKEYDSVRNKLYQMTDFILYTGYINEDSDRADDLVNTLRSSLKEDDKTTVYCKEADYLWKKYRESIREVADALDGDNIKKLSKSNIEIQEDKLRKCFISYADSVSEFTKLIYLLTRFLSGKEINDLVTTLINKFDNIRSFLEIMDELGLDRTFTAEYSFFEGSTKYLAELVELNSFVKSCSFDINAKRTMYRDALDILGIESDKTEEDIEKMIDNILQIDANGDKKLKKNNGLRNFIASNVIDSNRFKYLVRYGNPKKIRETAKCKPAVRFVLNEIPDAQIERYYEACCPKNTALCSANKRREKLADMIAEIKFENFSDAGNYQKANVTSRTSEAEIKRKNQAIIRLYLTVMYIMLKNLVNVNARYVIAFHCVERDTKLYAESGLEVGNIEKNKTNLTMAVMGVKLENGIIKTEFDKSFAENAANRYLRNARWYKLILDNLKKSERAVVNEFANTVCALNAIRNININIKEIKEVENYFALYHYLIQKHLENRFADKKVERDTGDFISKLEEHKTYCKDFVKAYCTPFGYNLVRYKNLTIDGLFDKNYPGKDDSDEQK
# Assay procedure: crRNA (strand 1, pre-loaded); Mg2+; 40 mM Tris-HCl pH 7.5, 150 mM NaCl, 6 mM MgCl2, 1 mM DTT, 0.1% Tween-20, 0.2 mg/ml BSA; 25 C; 10 min per concentration, then washed
# Stated conditions: tags: His6-TwinStrep-SUMO cleaved; N-terminal SNAP kept (SNAP-Surface 488); label: 3' end held by stalled T7 RNA polymerase
pKd: −log10 of the molar value.
Assay readout: pKd

* target 1 MT 5'PFS GUC 3'PFS UGC (mixed) RNA 1: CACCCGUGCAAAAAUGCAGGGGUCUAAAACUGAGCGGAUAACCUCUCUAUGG RNA 2: GGGAAUGGAUCCACAUCUACGAAUUCGUCCCAUAGAGAGGUUAUCCGCUCAUGCAGAUCGGAAGAGCACACGU | 7.88
* target 1 insG 3' of 21,insG 3' of 21 (mixed) RNA 1: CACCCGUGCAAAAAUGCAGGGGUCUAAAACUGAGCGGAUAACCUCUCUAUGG RNA 2: GGGAAUGGAUCCACAUCUACGAAUUCGUACCGGAUAGAGAGGUUAUCCGCUCACCGAGAUCGGAAGAGCACACGU | 7.06
* target 1 U3G,A14C (mixed) RNA 1: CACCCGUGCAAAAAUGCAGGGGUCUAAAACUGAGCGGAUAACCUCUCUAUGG RNA 2: GGGAAUGGAUCCACAUCUACGAAUUCGUACCAUAGAGCGGUUAUCCGCGCACCGAGAUCGGAAGAGCACACGU | 7.54
* target 2 MT 5'PFS GGA 3'PFS ACA (mixed) RNA 1: CACCCGUGCAAAAUUGCAGGGGUCUAAAACCUUCUCCAAAUUGUUUCAUCCU RNA 2: GGGAAUGGAUCCACAUCUACGAAUUCGGAAGGAUGAAACAAUUUGGAGAAGACAAGAUCGGAAGAGCACACGU | 7.98
* target 2 MT 5'PFS AAA 3'PFS ACA (mixed) RNA 1: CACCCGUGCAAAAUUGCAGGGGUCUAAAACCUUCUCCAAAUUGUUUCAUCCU RNA 2: GGGAAUGGAUCCACAUCUACGAAUUCAAAAGGAUGAAACAAUUUGGAGAAGACAAGAUCGGAAGAGCACACGU | 8.11
* target 1 insU 3' of 2,insU 3' of 2 (mixed) RNA 1: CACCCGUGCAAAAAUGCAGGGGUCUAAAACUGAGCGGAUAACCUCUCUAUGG RNA 2: GGGAAUGGAUCCACAUCUACGAAUUCGUACCAUAGAGAGGUUAUCCGCUCUUACCGAGAUCGGAAGAGCACACGU | 8.02
* target 3 A12G,U22C (mixed) RNA 1: CACCCGUGCAAAAUUGCAGGGGUCUAAAACGACCUGAAUAUUUCAGAUCAAA RNA 2: GGGAAUGGAUCCACAUCUACGAAUUCGUUCUUGAUCUGAGAUAUUCAGGUCUGCAGAUCGGAAGAGCACACGU | 7.39
* target 1 MT 5'PFS UGU 3'PFS UCC (mixed) RNA 1: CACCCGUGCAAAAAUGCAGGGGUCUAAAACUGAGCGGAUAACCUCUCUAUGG RNA 2: GGGAAUGGAUCCACAUCUACGAAUUCUGUCCAUAGAGAGGUUAUCCGCUCAUCCAGAUCGGAAGAGCACACGU | 7.41
* target 1 MT 5'PFS AAA 3'PFS UCU (mixed) RNA 1: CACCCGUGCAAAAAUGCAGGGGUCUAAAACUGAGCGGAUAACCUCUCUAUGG RNA 2: GGGAAUGGAUCCACAUCUACGAAUUCAAACCAUAGAGAGGUUAUCCGCUCAUCUAGAUCGGAAGAGCACACGU | 7.60
* target 2 MT 5'PFS GGC 3'PFS CCG (mixed) RNA 1: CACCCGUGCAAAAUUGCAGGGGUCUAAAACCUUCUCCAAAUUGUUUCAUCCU RNA 2: GGGAAUGGAUCCACAUCUACGAAUUCGGCAGGAUGAAACAAUUUGGAGAAGCCGAGAUCGGAAGAGCACACGU | 7.77
* target 3 C1G,G3A (mixed) RNA 1: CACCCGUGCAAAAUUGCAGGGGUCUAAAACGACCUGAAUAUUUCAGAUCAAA RNA 2: GGGAAUGGAUCCACAUCUACGAAUUCGUUUUUGAUCUGAAAUAUUCAGAUGUGCAGAUCGGAAGAGCACACGU | 7.10
* target 1 insC 3' of 20,insG 3' of 1 (mixed) RNA 1: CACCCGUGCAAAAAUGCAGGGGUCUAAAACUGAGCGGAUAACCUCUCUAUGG RNA 2: GGGAAUGGAUCCACAUCUACGAAUUCGUACCACUAGAGAGGUUAUCCGCUCAGCCGAGAUCGGAAGAGCACACGU | 8.03
* target 2 MT 5'PFS GAC 3'PFS UCG (mixed) RNA 1: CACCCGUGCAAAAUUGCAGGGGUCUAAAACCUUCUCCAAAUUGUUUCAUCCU RNA 2: GGGAAUGGAUCCACAUCUACGAAUUCGACAGGAUGAAACAAUUUGGAGAAGUCGAGAUCGGAAGAGCACACGU | 7.82
* target 1 insC 3' of 17,insA 3' of 13 (mixed) RNA 1: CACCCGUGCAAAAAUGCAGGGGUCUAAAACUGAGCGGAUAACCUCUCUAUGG RNA 2: GGGAAUGGAUCCACAUCUACGAAUUCGUACCAUAGCAGAGAGUUAUCCGCUCACCGAGAUCGGAAGAGCACACGU | 7.65
* target 1 insC 3' of 17,insC 3' of 10 (mixed) RNA 1: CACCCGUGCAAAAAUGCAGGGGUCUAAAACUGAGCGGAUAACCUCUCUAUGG RNA 2: GGGAAUGGAUCCACAUCUACGAAUUCGUACCAUAGCAGAGGUUCAUCCGCUCACCGAGAUCGGAAGAGCACACGU | 7.28
